Sourced from PubChem BioAssay AID1159580

Listed here are molecules together with their documented normalized growth.
Assay: chemical genetic growth profiling, strain panel (AID 1159580);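 also: tested at 20 µM; growth read once vehicle control cultures reached saturation at 30 °C; 1 = growth at the plate median or of vehicle wells; lower values mean less growth of the strain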
Settings: S. cerevisiae deletion strains, growth OD, locus YIL125W, strain kgd1, stronger effect = lower value
The campaign covered roughly 5,500 compounds. About 2,000 (36%) were called active. Inconclusive results (about 18%) are left out. This is one part of the list.
Give a plain numeric answer without units written out.

Please review the entries below; each comes with its answer.
Molecule	Meas value
C/C=C/c1ccc2c(c1)OCO2	1.01
Nc1ccc(C(=O)NCC(=O)O)cc1	1.01
NCCNC(=O)c1ccc(Cl)cc1	0.988
CC1(C)C(O)CC(O)C2(C)C1CC(=O)C1(C)C2CCC2(C)C(C(=O)O)OC(=O)C3OC321 (centres undefined)	0.994
CC1(C)C(=O)C=CC2(C)C3CCC4(C)C(c5ccoc5)CC5OC54C3C(O)CC12 (centres undefined)	0.999

Ask | Look up normalized growth for this molecule: O=[N+]([O-])c1ccc(O)c([N+](=O)[O-])c1
Reply | 0.211

Ask | Look up normalized growth for this molecule: CC(=O)c1c(O)c(C)c(O)c2c1OC1=CC(=O)C(C(C)=O)C(=O)C12C (centres undefined)
Reply | 0.365

---

Assay: chemical genetic growth profiling, strain panel (AID 1159580);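 also: tested at 20 µM; growth read once vehicle control cultures reached saturation at 30 °C; 1 = growth at the plate median or of vehicle wells; lower values mean less growth of the strain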
Details: S. cerevisiae deletion strains, growth OD, locus YEL061C, strain CIN8, stronger effect = lower value
Hit rate of the full screen: of about 5,500 compounds, about 2,000 (36%) were called active. Not shown: some 18% with an inconclusive outcome. Some of the results follow.
Listed here are molecules together with their documented normalized growth.
Give a plain numeric answer without units written out.

Please review the entries below; each comes with its answer.
> print(dat)
                                   molecule  measured.attribute  meas.value
1             CCCc1cc(Br)c(-n2cccc2)c(Br)c1   normalized growth        1.02
2  C=CC(C1=CC(=O)C(OC)=CC1=O)c1ccc(OC)cc1 (stereo unspecified)   normalized growth       0.982
3  C=CC(C1=CC(=O)C(OC)=CC1=O)c1ccc(O)cc1 (stereo unspecified)   normalized growth       0.992

Ask | Look up normalized growth for this molecule: C=CC(C1=CC(=O)C(OC)=CC1=O)c1ccccc1 (stereo unspecified)
Reply | 0.932

Ask | Look up normalized growth for this molecule: Cc1cc(C)c(I)c(C)c1
Reply | 1.05

Ask | Look up normalized growth for this molecule: Nc1ncn([C@@H]2O[C@H](CO)[C@@H](O)[C@H]2O)c(=O)n1
Reply | 1.01

---

Listed here are compounds together with their documented normalized growth.
Experiment: chemical genetic growth profiling, strain panel (AID 1159580);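 also: tested at 20 µM; growth read once vehicle control cultures reached saturation at 30 °C; 1 = growth at the plate median or of vehicle wells; lower values mean less growth of the strain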
Conditions: S. cerevisiae deletion strains, growth OD, locus YNL067W, strain RPL9B, stronger effect = lower value
In all, about 5,500 compounds went through this assay and about 2,000 (36%) were called active. Roughly 18% stayed inconclusive and do not appear here. Some of the results follow.
Give a plain numeric answer without units written out.

Compound	Measured attribute	Meas value
CCCC(C)C1(CC)C(=O)NC(=O)NC1=O (centres undefined)	normalized growth	1.01
Oc1c(Cl)cc(Cl)c2cccnc12	normalized growth	0.0516
CCCC(C)C1(CC)C(=O)N=C(S)NC1=O (centres undefined)	normalized growth	1.01

Proceeding to the next compound to report its normalized growth.
Ask | Look up normalized growth for this compound: CO[C@H]1/C=C/O[C@@]2(C)Oc3c(C)c(O)c4c(O)c(c(/C=N/N5CCN(C)CC5)c(O)c4c3C2=O)NC(=O)/C(C)=C\C=C\C(C)[C@H](O)[C@@H](C)[C@@H](O)[C@@H](C)[C@@H](OC(C)=O)[C@@H]1C (some centres undefined)
Reply | 1.04
